molecular target: T1, recombinant human HER2 extracellular domain protein (human, UniProt P04626 23-652); test: BLI, Protein A capture
T1 construct: range 23-652; Range is printed for the immunogen/panning protein; also called ErbB2; recombinant HER2 protein
Readout: kon (M⁻¹ s⁻¹)
Only the number, expressed in M⁻¹ s⁻¹, is required.

For 2126-Hu-H57 (antibody, IgG1, name in Kabat numbering, V domains shown, IgG1/Cκ) VH: QVQLVQSGSELKKPGASVKVSCKASGYTFTDYSMHWVRQAPGQGLEWMGWINTETGEPTYADDFKGRFVFSLDTSVSTAYLQISSLKAEDTAVYFCVRVGRYGYAMDYWGQGTTVTVSS VL: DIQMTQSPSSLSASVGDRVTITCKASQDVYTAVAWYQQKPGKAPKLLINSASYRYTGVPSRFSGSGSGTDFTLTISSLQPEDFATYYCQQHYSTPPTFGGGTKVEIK the binder record lists kon as 150000

binder 2126-Hu-H24 (antibody, IgG1, V domains shown, IgG1/Cκ) VH: QVQLVQSGSELKKPGASVKVSCKASGYTFTDYAMHWVRQAPGQGLEWMGWINTETGEPTYADDFKGRFVFSLDTSVSTAYLQISSLKAEDTAVYFCVRVGRYDYAMDYWGQGTTVTVSS VL: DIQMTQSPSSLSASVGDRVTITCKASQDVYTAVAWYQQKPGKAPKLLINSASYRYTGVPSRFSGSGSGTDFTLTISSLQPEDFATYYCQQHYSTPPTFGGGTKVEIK , kon observed: 108000

Notebook: 2126-Hu-H46 (antibody, IgG1, V domains shown, IgG1/Cκ) VH: QVQLVQSGSELKKPGASVKVSCKASGYTFTDYSMHWVRQAPGQGLEWMGWINTETGEPTYADDFKGRFVFSLDTSVSTAYLQISSLKAEDTAVYYCVRVGRYDYAMDYWGQGTTVTVSS VL: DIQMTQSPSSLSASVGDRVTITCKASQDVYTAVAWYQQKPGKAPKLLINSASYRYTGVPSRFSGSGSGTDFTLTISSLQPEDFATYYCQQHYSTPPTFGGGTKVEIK , kon read as 105000

For this binder ( 2126-Hu-H60 (antibody, IgG1, name in Kabat numbering, V domains shown, IgG1/Cκ) VH: QVQLVQSGSELKKPGASVKVSCKASGYTFTDYSMHWVRQAPGQGLEWMGWINTETGEPTYADDFKGRFVFSLDTSVSTAYLQISSLKAEDTAVYFCVRVGRYYYAMDYWGQGTTVTVSS VL: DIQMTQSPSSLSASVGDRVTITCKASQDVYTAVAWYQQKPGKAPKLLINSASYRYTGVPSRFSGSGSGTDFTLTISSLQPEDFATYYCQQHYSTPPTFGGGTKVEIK ), measured kon is 152000

Value of kon reported for the binder 2126-Hu-H52 (antibody, IgG1, name in Kabat numbering, V domains shown, IgG1/Cκ) VH: QVQLVQSGSELKKPGASVKVSCKASGYTFTDYSMHWVRQAPGQGLEWMGWINTETGEPTYADDFKGRFVFSLDTSVSTAYLQISSLKAEDTAVYFCVRVGRSDYAMDYWGQGTTVTVSS VL: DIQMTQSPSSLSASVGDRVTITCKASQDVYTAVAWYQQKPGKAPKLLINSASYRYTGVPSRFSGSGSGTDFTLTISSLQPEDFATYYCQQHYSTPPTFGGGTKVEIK is 152000

Data credit: patent EP4725969A1
